Sourced from patent US20140023611A1

In this section, each of the molecules is paired with its reported pIC50.
target.under.test: rat NaP2b (SLC34A2) (Rattus norvegicus, UniProt Q9JJ09)
Construct: host or cells: HEK293
Sequence (Q9JJ09 whole entry): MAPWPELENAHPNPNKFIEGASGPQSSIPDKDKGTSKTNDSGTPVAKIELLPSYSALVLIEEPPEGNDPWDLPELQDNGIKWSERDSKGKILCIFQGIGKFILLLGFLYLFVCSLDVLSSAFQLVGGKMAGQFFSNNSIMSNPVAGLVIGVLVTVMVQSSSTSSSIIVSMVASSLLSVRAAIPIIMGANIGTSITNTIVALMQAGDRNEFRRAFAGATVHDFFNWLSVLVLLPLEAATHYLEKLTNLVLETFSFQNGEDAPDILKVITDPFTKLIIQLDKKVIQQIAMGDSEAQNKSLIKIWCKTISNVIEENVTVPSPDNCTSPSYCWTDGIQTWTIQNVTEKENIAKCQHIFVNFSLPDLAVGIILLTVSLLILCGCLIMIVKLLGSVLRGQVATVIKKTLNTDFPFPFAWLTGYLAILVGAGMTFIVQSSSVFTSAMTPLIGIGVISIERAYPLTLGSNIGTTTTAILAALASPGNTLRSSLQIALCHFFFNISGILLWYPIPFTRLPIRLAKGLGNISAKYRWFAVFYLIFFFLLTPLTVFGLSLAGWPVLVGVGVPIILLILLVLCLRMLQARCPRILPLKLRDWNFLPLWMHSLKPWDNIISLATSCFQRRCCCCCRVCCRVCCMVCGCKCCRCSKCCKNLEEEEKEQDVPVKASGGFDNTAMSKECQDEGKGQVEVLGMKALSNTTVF
protocol: Inhibition of NaP2b-mediated Pi (33P) uptake in transfected HEK293 cells, rat NaP2b
Assay type: cell-based
measurement.setup: 33P Pi uptake, 0.1 mM phosphate, value given as pIC50 range
pIC50: −log10 of the molar value.

Guide cases for pIC50, answers given:
>>> observed_value("O=C(O)c1cccc(Cn2ccnc2-c2cccc(C(=O)Nc3ccc(N4CCCCC4)cc3-c3cc(C(=O)NCc4cccc(C(F)(F)F)c4)ccn3)c2)c1 [Example 184]")
"5.10 to 6.00"
>>> observed_value("CN1CCN(CCN(C)C(=O)c2cccc(C(=O)Nc3ccc(N4CCCCC4)cc3-c3cc(C(=O)NCc4cccc(C(F)(F)F)c4)ccn3)c2)CC1 [Example 82]")
"5.10 to 6.00"
>>> observed_value("CC(Nc1cc(-c2cc(N3CCCCC3)ccc2NC(=O)c2cccc(CSCCC(=O)O)c2)ncn1)c1cccc(C(F)(F)F)c1 (stereo not drawn) [Example 76]")
"4.50 to 5.00"
>>> observed_value("O=C(NCc1cccc(C(F)(F)F)c1)c1ccnc(-c2cc(N3CCCCC3)ccc2NC(=O)c2cccc(C(=O)N(CCN3CCOCC3)C3CC3)c2)c1 [Example 4.11]")
"5.10 to 6.00"

What value of pIC50 has been recorded for this entry: CCN(CC)c1ccc(NC(=O)c2cccc(C(=O)N(C)CCN(C)CCOCCOCCOCCNC(=O)C3CCOCC3)c2)c(-c2cc(C(=O)N[C@H]3CCCc4ccccc43)ccn2)c1 [Example 343] 5.10 to 6.00

Also CN(CCN1CCNC(=O)C1)C(=O)c1cccc(C(=O)Nc2ccc(N3CCCCC3)cc2-c2cc(C(=O)N[C@H]3CCCc4ccccc43)ccn2)c1 [Example 215] ? > 6.00
